Target chain: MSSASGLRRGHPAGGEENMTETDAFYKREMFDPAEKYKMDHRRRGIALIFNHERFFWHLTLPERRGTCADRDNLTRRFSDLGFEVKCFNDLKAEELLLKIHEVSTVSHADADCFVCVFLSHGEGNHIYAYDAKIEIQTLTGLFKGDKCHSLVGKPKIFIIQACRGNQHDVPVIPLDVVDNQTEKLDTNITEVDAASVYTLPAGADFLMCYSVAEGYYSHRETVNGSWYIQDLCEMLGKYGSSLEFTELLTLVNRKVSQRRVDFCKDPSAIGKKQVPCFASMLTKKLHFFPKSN
readout kind: pIC50
The read-out pIC50 is expressed as -log10 of concentration in moles per litre.

What does the record list as pIC50 for CC(C)[C@H](NC(=O)OCc1ccccc1)C(=O)Nc1ccccc1C(=O)NC(CC(=O)O)C(=O)CF (stereo partly specified) ?
7.21

* * *

Target protein (sequence): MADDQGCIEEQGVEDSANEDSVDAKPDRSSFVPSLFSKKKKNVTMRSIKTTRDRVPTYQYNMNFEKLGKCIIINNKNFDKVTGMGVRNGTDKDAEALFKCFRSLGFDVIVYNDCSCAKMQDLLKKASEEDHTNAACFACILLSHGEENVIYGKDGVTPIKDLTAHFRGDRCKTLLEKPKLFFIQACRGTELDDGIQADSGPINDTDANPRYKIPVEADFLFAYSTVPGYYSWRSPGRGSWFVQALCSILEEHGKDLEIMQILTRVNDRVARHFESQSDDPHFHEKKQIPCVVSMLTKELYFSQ
readout kind: pIC50
The read-out pIC50 is expressed as -log10 of concentration in moles per litre.

What does the record list as pIC50 for CC(C)[C@H](NC(=O)OCc1ccccc1)C(=O)Nc1ccccc1C(=O)NC(CC(=O)O)C(=O)CF (stereo partly specified) ?
7.96

* * *

Target: Caspase-3 (Homo sapiens)
Sequence (P42574 whole entry): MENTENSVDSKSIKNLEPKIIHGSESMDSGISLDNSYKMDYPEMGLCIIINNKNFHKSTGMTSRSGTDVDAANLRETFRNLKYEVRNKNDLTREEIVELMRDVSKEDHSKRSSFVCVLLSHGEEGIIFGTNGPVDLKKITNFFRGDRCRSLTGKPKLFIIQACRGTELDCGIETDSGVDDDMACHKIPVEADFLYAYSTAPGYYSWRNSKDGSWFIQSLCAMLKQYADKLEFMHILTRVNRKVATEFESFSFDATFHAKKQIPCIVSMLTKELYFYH
Assay: Inhibition of human recombinant caspase 3 by fluorometric assay
readout kind: IC50 (nM)
Provide only the numeric value, understood in nM.

# query: IC50 | item CC(C)[C@H](NC(=O)OCc1ccccc1)C(=O)Nc1ccccc1C(=O)NC(CC(=O)O)C(=O)CF (stereo partly specified) | system: Caspase-3 (Homo sapiens)
33
